Molecular target: Recombinant human His6-USP1/His6-UAF1 complex protein (Homo sapiens, UniProt O94782)
Construct: His6
Sequence (O94782 whole entry): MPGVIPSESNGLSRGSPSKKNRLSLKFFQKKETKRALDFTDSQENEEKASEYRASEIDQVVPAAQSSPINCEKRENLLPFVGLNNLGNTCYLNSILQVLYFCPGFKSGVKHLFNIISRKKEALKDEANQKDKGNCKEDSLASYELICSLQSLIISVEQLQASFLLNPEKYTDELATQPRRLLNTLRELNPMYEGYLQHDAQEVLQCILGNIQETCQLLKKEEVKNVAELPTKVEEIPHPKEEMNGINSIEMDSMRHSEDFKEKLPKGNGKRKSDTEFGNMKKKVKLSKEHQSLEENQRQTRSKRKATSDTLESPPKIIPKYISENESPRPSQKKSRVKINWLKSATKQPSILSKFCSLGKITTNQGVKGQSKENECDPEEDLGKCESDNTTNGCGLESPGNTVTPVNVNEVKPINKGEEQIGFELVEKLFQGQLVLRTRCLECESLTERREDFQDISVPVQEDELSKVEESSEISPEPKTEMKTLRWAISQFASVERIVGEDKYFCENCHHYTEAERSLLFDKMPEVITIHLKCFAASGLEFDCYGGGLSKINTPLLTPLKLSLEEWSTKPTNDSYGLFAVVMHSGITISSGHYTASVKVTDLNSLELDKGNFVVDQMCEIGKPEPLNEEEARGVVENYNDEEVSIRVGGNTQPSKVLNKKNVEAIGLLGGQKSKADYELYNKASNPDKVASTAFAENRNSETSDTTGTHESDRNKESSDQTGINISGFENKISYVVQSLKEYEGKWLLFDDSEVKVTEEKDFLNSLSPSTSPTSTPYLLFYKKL
Sequence (Q8TAF3 whole entry partner): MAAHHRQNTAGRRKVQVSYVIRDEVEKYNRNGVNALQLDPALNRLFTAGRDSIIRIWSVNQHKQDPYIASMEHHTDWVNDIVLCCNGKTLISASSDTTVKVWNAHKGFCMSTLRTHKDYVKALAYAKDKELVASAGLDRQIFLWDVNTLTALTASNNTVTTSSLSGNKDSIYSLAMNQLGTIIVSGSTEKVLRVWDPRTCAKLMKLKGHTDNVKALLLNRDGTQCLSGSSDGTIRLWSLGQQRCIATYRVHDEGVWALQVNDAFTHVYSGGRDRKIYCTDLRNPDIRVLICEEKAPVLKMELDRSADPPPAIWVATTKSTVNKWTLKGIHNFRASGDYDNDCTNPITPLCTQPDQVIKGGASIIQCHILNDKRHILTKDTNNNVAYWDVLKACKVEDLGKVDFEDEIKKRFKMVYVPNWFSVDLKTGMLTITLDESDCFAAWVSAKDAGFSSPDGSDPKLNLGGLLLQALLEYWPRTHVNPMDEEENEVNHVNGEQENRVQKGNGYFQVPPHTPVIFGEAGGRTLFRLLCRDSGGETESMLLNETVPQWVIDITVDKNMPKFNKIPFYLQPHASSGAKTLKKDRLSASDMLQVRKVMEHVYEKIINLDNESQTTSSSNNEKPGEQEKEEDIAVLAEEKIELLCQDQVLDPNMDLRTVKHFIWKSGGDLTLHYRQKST
Test: In vitro inhibitory activity against USP1 (Ubiquitin Rhodamine 110 fluorescence detection, 384-well plate)
Details: Ub-Rho substrate, 1 hour pre-incubation, read after 30 minutes
Text: Test Example 1: In vitro inhibitory activity against USP1 […] Experimental object: to screen compounds with inhibitory activity against USP1 […] by a fluorescence detection method, using a 384-well plate. […]
pIC50: −log10 of the molar value.
Parameter: pIC50

The examples below pair each entry with its known result.
Molecule: [2H]C([2H])([2H])N(C[C@H]1CC[C@H](c2nc(C(F)(F)F)cn2C2CC2)CC1)c1nc(-c2c(OC)ncnc2C2CC2)ncc1OC [Example S23]
Tested On: Recombinant human His6-USP1/His6-UAF1 complex protein (Homo sapiens, UniProt O94782)
Value Observed: 8.32

Molecule: COc1ncnc(C2CC2)c1-c1ncc(Cl)c(NCc2ccc(-c3nc(C(F)(F)F)cn3C)cc2)n1 [Example 124]
Tested On: Recombinant human His6-USP1/His6-UAF1 complex protein (Homo sapiens, UniProt O94782)
Value Observed: 8.21

I. COc1cc(CNc2nc(-c3c(OC)ncnc3C3CC3)ncc2OC)ccc1-n1nc(C(F)(F)F)cc1C [Example 103]
II. COc1cnc(-c2ccccc2C(C)C)nc1N(C)Cc1ccc(-c2nc(C(F)(F)F)cn2C)cc1 [Example 3]
## Input API: POST /compare with I and II ; response names the item with higher pIC50. When you have decided, please share the label of that item.
## Output II
(II: 8.55, I: 8.00)

a. COc1cnc(-c2c(Cl)cnn2C(C)C)nc1NCC1CCN(c2nc(C(F)(F)F)cn2C)CC1 [Example 163]
b. Cc1cc(C(F)(F)F)nn1-c1ccc(CNc2nc(-c3ccccc3C3CC3)nc3ccoc23)cc1 [Example 174]
## Input Exercise: compare a and b ; which one has the greater pIC50? Answer by stating the label of the chosen item.
## Output a
